- measured_target: Histone deacetylase 1 (Homo sapiens)
- test_description: Inhibition of full length human recombinant C-terminal FLAG/His-tagged HDAC1 expressed in baculovirus infected sf9 cells using fluorogenic HDAC substrate 3 after 30 mins by fluorescence assay
pIC50: −log10 of the molar value.
Label n if pIC50 falls below 6; label y in every other case.

CCCc1nc(C)c2c(=O)[nH]c(-c3cc(Cc4ccc(C(=O)NO)cc4)ccc3OCC)nn12 | n
CCCc1nn(C)c2c(=O)[nH]c(-c3cc(N4CCC(C(=O)NO)CC4)ccc3OCC)nc12 | n
CCCc1nn(C)c2c(=O)[nH]c(-c3cc(Cc4ccc(C(=O)NO)cc4OC)ccc3OCC)nc12 | n
CCCc1nn(C)c2c(=O)[nH]c(-c3cc(-c4ccc(C(=O)NO)cc4)ccc3OCC)nc12 | y
CCCc1nn(C)c2c(=O)[nH]c(-c3cc(Nc4ccc(C(=O)NO)cc4)ccc3OCC)nc12 | y

Moving on to another compound below.
Record CCCc1nn(C)c2c(=O)[nH]c(-c3cc(Cc4ccc(C(=O)NO)c(OC)c4)ccc3OCC)nc12 ; criterion: pIC50 no lower than 6. Met?
n

* * *

- measured_target: Histone deacetylase 9 (Homo sapiens, UniProt Q9UKV0)
- Sequence (Q9UKV0 whole entry): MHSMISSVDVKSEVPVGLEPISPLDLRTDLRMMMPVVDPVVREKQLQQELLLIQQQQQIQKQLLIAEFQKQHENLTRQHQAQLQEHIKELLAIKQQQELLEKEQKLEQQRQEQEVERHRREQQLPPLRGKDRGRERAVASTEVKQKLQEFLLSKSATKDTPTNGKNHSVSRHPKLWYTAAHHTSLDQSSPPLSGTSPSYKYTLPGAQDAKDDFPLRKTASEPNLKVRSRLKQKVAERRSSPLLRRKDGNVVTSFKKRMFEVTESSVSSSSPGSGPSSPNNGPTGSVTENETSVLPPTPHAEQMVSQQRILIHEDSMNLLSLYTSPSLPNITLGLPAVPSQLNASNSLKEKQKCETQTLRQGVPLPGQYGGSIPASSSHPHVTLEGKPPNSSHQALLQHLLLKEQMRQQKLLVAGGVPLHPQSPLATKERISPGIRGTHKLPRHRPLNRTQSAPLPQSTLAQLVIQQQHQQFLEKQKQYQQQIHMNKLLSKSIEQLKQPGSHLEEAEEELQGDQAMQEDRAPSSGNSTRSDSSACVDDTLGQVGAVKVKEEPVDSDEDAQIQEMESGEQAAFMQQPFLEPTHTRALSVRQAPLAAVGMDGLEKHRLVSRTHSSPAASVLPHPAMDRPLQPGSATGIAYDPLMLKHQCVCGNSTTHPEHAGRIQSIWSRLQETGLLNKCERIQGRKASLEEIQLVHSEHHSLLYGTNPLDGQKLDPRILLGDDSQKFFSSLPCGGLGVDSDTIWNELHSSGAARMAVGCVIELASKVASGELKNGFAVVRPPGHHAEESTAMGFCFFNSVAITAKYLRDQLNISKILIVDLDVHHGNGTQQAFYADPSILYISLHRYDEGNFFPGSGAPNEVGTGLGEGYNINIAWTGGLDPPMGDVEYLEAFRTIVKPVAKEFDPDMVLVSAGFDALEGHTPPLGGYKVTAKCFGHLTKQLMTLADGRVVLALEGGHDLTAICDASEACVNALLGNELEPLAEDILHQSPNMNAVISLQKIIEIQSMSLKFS
measured_attribute: IC50

Note IC50 for the compound shown: CCCc1nn(C)c2c(=O)[nH]c(-c3cc(Cc4ccc(C(=O)NO)s4)ccc3OCC)nc12
> 10 µM

* * *

- measured_target: Histone deacetylase 1 (Homo sapiens, UniProt Q13547)
- Sequence (Q13547 whole entry): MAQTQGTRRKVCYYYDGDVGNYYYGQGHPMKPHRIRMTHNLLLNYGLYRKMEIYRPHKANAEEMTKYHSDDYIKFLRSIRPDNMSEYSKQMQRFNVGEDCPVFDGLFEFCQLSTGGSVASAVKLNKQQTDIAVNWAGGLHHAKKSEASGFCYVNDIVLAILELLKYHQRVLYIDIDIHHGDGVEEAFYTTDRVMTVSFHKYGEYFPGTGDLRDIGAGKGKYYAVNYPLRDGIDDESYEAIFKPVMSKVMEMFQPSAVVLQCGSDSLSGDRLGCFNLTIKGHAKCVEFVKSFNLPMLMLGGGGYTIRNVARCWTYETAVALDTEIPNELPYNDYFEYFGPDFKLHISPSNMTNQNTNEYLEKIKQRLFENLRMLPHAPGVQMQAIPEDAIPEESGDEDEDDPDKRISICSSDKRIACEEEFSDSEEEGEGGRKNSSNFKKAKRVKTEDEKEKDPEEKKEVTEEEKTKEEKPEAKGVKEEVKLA
- test_description: Inhibition of full length human recombinant C-terminal FLAG/His-tagged HDAC1 expressed in baculovirus infected sf9 cells using fluorogenic HDAC substrate 3 after 30 mins by fluorescence assay
measured_attribute: pIC50
Please report pIC50 as the negative decimal logarithm of the molar concentration, giving only the number.

# count of solved cases: 3
CCCc1nn(C)c2c(=O)[nH]c(-c3cc(Cc4ccc(C(=O)NO)cc4F)ccc3OCC)nc12 | 5.69
CCCc1nc(C)c2c(=O)[nH]c(-c3cc(-c4ccc(C(=O)NO)cc4)ccc3OCC)nn12 | 5.39
CCCc1nn(C)c2c(=O)[nH]c(-c3cc(OCc4ccc(C(=O)NO)cc4)ccc3OCC)nc12 | 5.97

Note pIC50 for the compound shown: CCCc1nn(C)c2c(=O)[nH]c(-c3cc(C4CCC(C(=O)NO)CC4)ccc3OCC)nc12 (stereo unspecified)
5.08

Note pIC50 for the compound shown: CCCc1nn(C)c2c(=O)[nH]c(-c3cc(C4=CCC(CC(=O)NO)CC4)ccc3OCC)nc12 (stereo unspecified)
5.74

Note pIC50 for the compound shown: CCCc1nn(C)c2c(=O)[nH]c(-c3cc(C4=CCC(C(=O)NO)CC4)ccc3OCC)nc12 (stereo unspecified)
5.54

* * *

- measured_target: Histone deacetylase 5 (Homo sapiens)
- Sequence (Q9UQL6 whole entry): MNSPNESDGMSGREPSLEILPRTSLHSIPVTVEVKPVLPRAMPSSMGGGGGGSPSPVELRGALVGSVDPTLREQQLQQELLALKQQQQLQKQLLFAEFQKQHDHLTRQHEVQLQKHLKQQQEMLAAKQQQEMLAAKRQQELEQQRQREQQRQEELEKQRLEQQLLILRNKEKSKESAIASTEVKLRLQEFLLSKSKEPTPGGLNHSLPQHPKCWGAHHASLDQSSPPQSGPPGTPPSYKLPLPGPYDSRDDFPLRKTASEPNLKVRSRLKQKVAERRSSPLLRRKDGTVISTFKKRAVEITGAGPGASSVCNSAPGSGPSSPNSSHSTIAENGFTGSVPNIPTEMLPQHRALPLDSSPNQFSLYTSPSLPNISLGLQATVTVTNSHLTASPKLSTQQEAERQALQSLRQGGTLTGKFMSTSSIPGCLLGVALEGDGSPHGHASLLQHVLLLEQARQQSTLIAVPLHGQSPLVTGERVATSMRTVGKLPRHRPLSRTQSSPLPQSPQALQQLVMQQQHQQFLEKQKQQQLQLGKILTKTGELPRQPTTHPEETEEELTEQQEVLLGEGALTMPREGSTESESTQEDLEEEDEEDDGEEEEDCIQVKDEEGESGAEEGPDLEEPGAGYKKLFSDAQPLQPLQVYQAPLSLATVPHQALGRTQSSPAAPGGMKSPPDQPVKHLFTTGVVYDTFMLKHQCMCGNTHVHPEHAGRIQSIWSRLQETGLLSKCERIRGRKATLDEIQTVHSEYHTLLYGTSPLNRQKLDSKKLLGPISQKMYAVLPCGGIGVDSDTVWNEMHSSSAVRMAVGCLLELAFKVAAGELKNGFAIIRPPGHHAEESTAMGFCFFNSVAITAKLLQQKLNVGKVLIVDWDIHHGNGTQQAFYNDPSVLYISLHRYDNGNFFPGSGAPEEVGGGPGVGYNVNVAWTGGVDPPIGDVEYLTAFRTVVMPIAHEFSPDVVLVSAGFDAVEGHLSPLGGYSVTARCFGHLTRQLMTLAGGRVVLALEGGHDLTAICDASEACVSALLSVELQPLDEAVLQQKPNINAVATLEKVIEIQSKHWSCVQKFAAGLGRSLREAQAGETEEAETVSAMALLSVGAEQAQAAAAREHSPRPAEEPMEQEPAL
measured_attribute: IC50

Look up and report IC50, with Histone deacetylase 5 (Homo sapiens) as system, for CCCc1nn(C)c2c(=O)[nH]c(-c3cc(Cc4ccc(C(=O)NO)s4)ccc3OCC)nc12
> 10 µM

* * *

- measured_target: cGMP-specific 3',5'-cyclic phosphodiesterase (Homo sapiens, UniProt O76074)
- test_description: Inhibition of PDE5A (unknown origin)
measured_attribute: pIC50
Please report pIC50 as the negative decimal logarithm of the molar concentration, giving only the number.

Note pIC50 for the compound shown: CCCc1nc(C)c2c(=O)[nH]c(-c3cc(CC4CC(C(=O)NO)C4)ccc3OCC)nn12 (stereo unspecified)
8.30
